- assay_target: steroid 5α-reductase (Homo sapiens)
- Sequence (P31213 1-254): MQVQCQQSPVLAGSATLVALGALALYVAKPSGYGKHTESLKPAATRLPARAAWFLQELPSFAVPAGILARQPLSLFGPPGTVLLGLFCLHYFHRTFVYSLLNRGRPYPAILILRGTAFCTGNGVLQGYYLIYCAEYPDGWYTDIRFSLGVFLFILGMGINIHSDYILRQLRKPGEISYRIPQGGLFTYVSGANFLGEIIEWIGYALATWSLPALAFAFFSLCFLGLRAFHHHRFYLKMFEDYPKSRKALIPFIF
property_measured: pIC50
Kindly note that pIC50 refers to -log10 of the concentration in mol/L and answer with the value alone.

>>> value_measured("CC(C)N(C(=O)[C@H]1CC[C@H]2[C@@H]3C=CC4=C(N)C(=O)CC[C@]4(C)[C@H]3CC[C@]12C)C(C)C")
7.80
>>> value_measured("CC(=O)[C@H]1CC[C@H]2[C@@H]3C=CC4=C(N)C(=O)CC[C@]4(C)[C@H]3CC[C@]12C")
7.60

input: For the compound shown here, CC(C)(C)NC(=O)[C@H]1CC[C@H]2[C@@H]3C=CC4=C(N)C(=O)CC[C@]4(C)[C@H]3CC[C@]12C , give the reported pIC50.
output: 8.10
